system: trained panelists; test: time-intensity analysis of cooling, mouthwash application; type: in vivo; details: after expectoration for 15 minutes (Table 9b)
Marks after values point to notes of the source that are not given here.
Listing of recorded AUC by entry.
measured property: AUC

1. CC(C)[C@@H]1CC[C@@H](C)C[C@H]1OC(=O)CNC1CC1    5211.25^bc
2. CCCCN(CCCC)CC(=O)O[C@@H]1C[C@H](C)CC[C@H]1C(C)C    4105.91^ac
3. CC1CCC(C(C)C)C(O)C1 (centres unmarked)    3608.38^a
4. CC(C)[C@@H]1CC[C@@H](C)C[C@H]1OC(=O)CN(C)C(C)C    5565.00^b

###

Let's look at some molecules and their measured Rdec.
test system: trained panelists; experiment: time-intensity analysis of cooling, mouthwash application; assay type: in vivo; conditions: after expectoration for 15 minutes (Table 9b)
Marks after values point to notes of the source that are not given here.
measured property: Rdec

1. CC1CCC(C(C)C)C(O)C1 (stereo not shown)    −0.03^a
2. CC(C)[C@@H]1CC[C@@H](C)C[C@H]1OC(=O)CNC1CC1    −0.01^b
3. CCCCN(CCCC)CC(=O)O[C@@H]1C[C@H](C)CC[C@H]1C(C)C    −0.01^b
4. CC(C)[C@@H]1CC[C@@H](C)C[C@H]1OC(=O)CN(C)C(C)C    −0.01^b

###

system: trained panelists; test: time-intensity analysis of cooling, mouthwash application; type: in vivo; conditions: after expectoration for 15 minutes (Table 9b)
measured property: I max

1) CCCCN(CCCC)CC(=O)O[C@@H]1C[C@H](C)CC[C@H]1C(C)C    12.65^ab
2) CC1CCC(C(C)C)C(O)C1 (stereo not shown)    12.01^a^
3) CC(C)[C@@H]1CC[C@@H](C)C[C@H]1OC(=O)CNC1CC1    13.20^ab
4) CC(C)[C@@H]1CC[C@@H](C)C[C@H]1OC(=O)CN(C)C(C)C    13.37^ab
